Data provenance is patent US8163909B2.

- PROCEDURE_TEXT: Microsomal stability assay, rat liver microsomes;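 note: rat liver microsomes (0.25 mg/mL) with about 1 µM compound plus 1 mM NADPH, pH 7.4, 37 °C for 30 min, parent left measured by LC-MS/MS against 0 min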
- CONDITIONS_USED: rat liver microsomal data
READOUT: RLM (µL/min/mg)
Hi! Could you send only the number? It should be in µL/min/mg, unit omitted.

                           smiles_structure   unit_tag  reported_value
0  COCC(=O)N[C@@H](Cc1cccc(F)c1)[C@H](O)CN[C@H]1CC2(CCC2)Oc2ccc(C[C@H](C)F)cc21  µL/min/mg             829
1  C#Cc1cccc(C[C@H](NC(=O)COC)[C@H](O)CN[C@H]2CC3(CCC3)Oc3ncc(CC)cc32)c1  µL/min/mg              57
2  CC(=O)C(C)(C)C(=O)N[C@@H](Cc1ccc2c(c1)OCO2)[C@H](O)CN[C@H]1CC2(CCC2)Oc2ncc(CC(C)(C)C)cc21  µL/min/mg              90

# query: RLM of entry COCC(=O)N[C@@H](Cc1ccccc1)[C@H](O)CN[C@H]1CC2(CCC2)Oc2c(Br)cc(CC(C)C)cc21 662

Subsequent entry: CC#Cc1cnc2c(c1)[C@@H](NC[C@@H](O)[C@H](Cc1cccc(-c3nccs3)c1)NC(=O)COC)CC1(CCC1)O2 54

Subsequent entry: COCC(=O)N[C@@H](Cc1ccc2c(c1)OCO2)[C@H](O)CN[C@H]1CC2(CCC2)Oc2ncc(CC(F)(F)F)cc21 82

---

- MEASUREMENT_TARGET: CYP3A4 (CYP3A) (Homo sapiens);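 note: inhibition of CYP3A-mediated 1-hydroxymidazolam formation after 10 min incubation with NADPH, quantified by HPLC MS relative to metabolite produced without test compound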
- Sequence (P08684 2-503): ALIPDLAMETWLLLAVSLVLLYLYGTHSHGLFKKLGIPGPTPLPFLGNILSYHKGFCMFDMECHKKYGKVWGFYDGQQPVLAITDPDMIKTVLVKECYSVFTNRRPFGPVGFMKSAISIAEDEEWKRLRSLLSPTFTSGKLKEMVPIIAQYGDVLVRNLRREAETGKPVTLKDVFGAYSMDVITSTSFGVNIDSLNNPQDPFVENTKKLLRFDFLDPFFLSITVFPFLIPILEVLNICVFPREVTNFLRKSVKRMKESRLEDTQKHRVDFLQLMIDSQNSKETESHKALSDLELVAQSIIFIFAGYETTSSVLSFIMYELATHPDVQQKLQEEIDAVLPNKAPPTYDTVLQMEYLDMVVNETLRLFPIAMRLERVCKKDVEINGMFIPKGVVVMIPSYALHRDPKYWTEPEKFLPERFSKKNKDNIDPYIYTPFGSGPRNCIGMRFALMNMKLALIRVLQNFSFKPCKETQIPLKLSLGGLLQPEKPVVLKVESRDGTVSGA
- PROCEDURE_TEXT: in vitro
- CONDITIONS_USED: microsomes, pH 7.4
READOUT: IC50 (nM)
Hi! Could you send only the number? It should be in nM, unit omitted.

Past entries and their recorded results:
>>> print(df.to_string())
                                   molecule  reported_value
0  CC(=O)N[C@@H](Cc1cccc(F)c1)[C@H](O)CN[C@H]1CC2(CCC2)Oc2c1cc(CC(C)(C)C)nc2-c1ccncc1 [compound 532]             200
1  COCC(=O)N[C@@H](Cc1ccc2c(c1)OCO2)[C@H](O)CN[C@H]1CC2(CCC2)Oc2ncc([C@@H]3CC3(C)C)cc21 [Example 575]             100

Now look at this one.
Please tell me: IC50 of Cc1csc(CN2CCO[C@H](C(=O)N[C@@H](Cc3ccc(F)cc3)[C@H](O)CN[C@H]3CC4(CCC4)Oc4ncc(CC(C)(C)C)cc43)C2)n1 [compound 734] , system CYP3A4 (CYP3A) (Homo sapiens)? 100

---

- MEASUREMENT_TARGET: UniProt:P10635
- Sequence (P10635 whole entry): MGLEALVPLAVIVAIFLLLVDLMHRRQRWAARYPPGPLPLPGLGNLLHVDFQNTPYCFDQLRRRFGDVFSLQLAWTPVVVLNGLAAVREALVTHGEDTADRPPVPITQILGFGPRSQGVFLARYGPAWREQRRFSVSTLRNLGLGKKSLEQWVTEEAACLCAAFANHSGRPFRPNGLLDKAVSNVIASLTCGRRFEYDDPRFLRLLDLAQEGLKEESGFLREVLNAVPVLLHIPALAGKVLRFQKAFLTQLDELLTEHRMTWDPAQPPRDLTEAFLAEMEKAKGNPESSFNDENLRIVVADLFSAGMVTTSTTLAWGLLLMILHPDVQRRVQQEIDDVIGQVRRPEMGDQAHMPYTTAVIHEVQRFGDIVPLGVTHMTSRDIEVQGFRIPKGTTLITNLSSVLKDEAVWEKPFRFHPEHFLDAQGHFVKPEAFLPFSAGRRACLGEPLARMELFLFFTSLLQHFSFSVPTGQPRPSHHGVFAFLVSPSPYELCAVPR
- PROCEDURE_TEXT: CYP2D6 inhibition assay (bufuralol, pooled human liver microsomes)
- CONDITIONS_USED: 2D6 IC50, CYP enzyme inhibition
Define the label as satisfied when IC50 is strictly less than 900 nM and as not satisfied in all remaining cases.

Would you please look over these solved cases?
>>> print(df.to_string())
                           smiles_structure          group
0  COCC(=O)N[C@@H](Cc1cccc(C#N)c1)[C@H](O)CN[C@H]1CC2(CC(F)(F)C2)Oc2ncc(CC(C)(C)C)cc21  not satisfied
1  COC(OC)C(=O)N[C@@H](Cc1cc(F)cc(-c2nccs2)c1)[C@H](O)CN[C@H]1CC2(CCC2)Oc2ncc(CC(C)(C)C)cc21      satisfied
2  CC(C)(C)Cc1cnc2c(c1)[C@@H](NC[C@@H](O)[C@H](Cc1cc(F)cc(-c3nccs3)c1)NC(=O)C1CCC1)CC1(CCC1)O2      satisfied
3  COCC(=O)N[C@@H](Cc1cc(F)cc(F)c1)[C@H](O)CN[C@H]1CC2(CCC2)Oc2c1cc(CC(C)(C)C)cc2-n1ccnc1  not satisfied

Now, please, on to the next compound.
Lab note: IC50 threshold 900 nM. Does this compound come in strictly under it? COCC(=O)N[C@@H](Cc1ccc2c(c1)OCO2)[C@H](O)CN[C@H]1CC2(CCC2)Oc2ncc(CCC(F)(F)F)cc21 not satisfied

---

- PROCEDURE_TEXT: Microsomal stability assay, human liver microsomes
- CONDITIONS_USED: human liver microsomal data
READOUT: HLM (µL/min/mg)
Hi! Could you send only the number? It should be in µL/min/mg, unit omitted.

In [3]: df
Out[3]:
                                   compound  reported_value
0  CNc1cc(CC(C)(C)C)cc2c1OC1(CCC1)C[C@@H]2NC[C@@H](O)[C@H](Cc1cc(F)cc(F)c1)NC(=O)COC             167
1  CC(C)C(=O)N[C@@H](Cc1cc(F)cc(-c2nccs2)c1)[C@H](O)CN[C@H]1CC2(CCC2)Oc2ncc(CC(C)(C)C)cc21              54
2  CC(C)(C)Cc1cnc2c(c1)[C@@H](NC[C@@H](O)[C@H](Cc1cc(F)cc(-c3nccs3)c1)NC(=O)CF)CC1(CCC1)O2              72
3  COC(OC)C(=O)N[C@@H](Cc1cccc(F)c1)[C@H](O)CN[C@H]1CC2(CCC2)Oc2ncc(CC(C)(F)F)cc21             256

# query: HLM of entry CO[C@H](C)C(=O)N[C@@H](Cc1cncs1)[C@H](O)CN[C@H]1CC2(CCC2)Oc2c1cc(CC(C)(C)C)nc2-c1ccccn1 104

Subsequent entry: COCC(=O)N[C@@H](Cc1cc(F)cc(F)c1)[C@H](O)CN[C@H]1CC2(CCC2)Oc2c(-c3ccccc3F)cc(CC(C)(C)C)cc21 394

Subsequent entry: CCOCC(=O)N[C@@H](Cc1cc(F)cc(-c2nccs2)c1)[C@H](O)CN[C@H]1CC2(CCC2)Oc2ncc(CC(C)(C)C)cc21 43

Subsequent entry: C#Cc1cccc(C[C@H](NC(=O)COC)[C@H](O)CN[C@H]2CC3(CCC3)Oc3ncc(CC(C)(F)F)cc32)c1 40

Subsequent entry: CC(C)(C)Cc1cnc2c(c1)[C@@H](NC[C@@H](O)[C@H](Cc1ccc3c(c1)OCO3)NC(=O)CC1CCS(=O)(=O)C1)CC1(CCC1)O2 (stereo partly shown) 62

Subsequent entry: COCC(=O)N[C@@H](Cc1ccc(F)cc1)[C@H](O)CN[C@H]1CC2(CCC2)Oc2c1cc(CC(C)(C)C)nc2C#N 95

---

- Test system: Aβ40 in conditioned medium of cells stably expressing Amyloid Precursor Protein (APP)
- PROCEDURE_TEXT: In vitro BACE cell-based assay (Aβ40 in conditioned medium, sandwich ELISA)
- CONDITIONS_USED: HEK cells; read-out: HEK cell assay
READOUT: pIC50
Notebook: values listed as pIC50 are -log10 of the concentration (mol/L).

# query: pIC50 of entry COCC(=O)N[C@@H](Cc1ccc2c(c1)OCO2)[C@H](O)CN[C@H]1CC2(CCC2)Oc2ccc(C[C@@H](C)F)cc21 6.42

---

- Test system: Aβ40 in conditioned medium of cells stably expressing Amyloid Precursor Protein (APP)
- PROCEDURE_TEXT: In vitro BACE cell-based assay (Aβ40 in conditioned medium, sandwich ELISA);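 note: compounds added as a dilution series, secreted peptide quantified by europium time-resolved fluorescence readout, potency fitted from percent of control versus compound concentration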
- CONDITIONS_USED: Homo sapiens, HEK293, Table 2; HEK cells; read-out: HEK cell assay
READOUT: IC50 (nM)
Hi! Could you send only the number? It should be in nM, unit omitted.

Past entries and their recorded results:
In [3]: df
Out[3]:
                           smiles_structure  unit_tag  reported_value
0  COCC(=O)N[C@@H](Cc1ccc2c(c1)OCO2)[C@H](O)CN[C@H]1CC2(CCC2)Oc2nc(F)c(CC(C)(C)C)cc21        nM             378
1  COCC(=O)N[C@@H](C[C@@H]1CCOC1)[C@H](O)CN[C@H]1CC2(CCC2)Oc2ncc(CC(C)(C)C)cc21        nM             649

Now look at this one.
# query: IC50 of entry C[C@@H](O)C(=O)N[C@@H](Cc1ccc(F)cc1)[C@H](O)CN[C@H]1CC2(CCC2)Oc2ncc(CC(C)(C)C)cc21 16

---

- PROCEDURE_TEXT: Microsomal stability assay, human liver microsomes;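 note: pooled human liver microsomes at 0.25 mg/mL with 1 µM compound and NADPH at 37 °C, pH 7.4, for 30 min, unchanged parent quantified by LC-MS/MS against the 0 min sample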
- CONDITIONS_USED: human liver microsomes
HLM values for the molecules below.
Hi! Could you send only the number? It should be in µL/min/mg, unit omitted.

Past entries and their recorded results:
>>> df
                           smiles_structure  readout  reported_value
0  COCC(=O)N[C@@H](Cc1ccccc1)[C@H](O)CN[C@H]1CC2(CCC2)Oc2ccc(C[C@H](C)F)cc21      HLM             644
1  COCC(=O)N[C@@H](Cc1cccc(F)c1)[C@H](O)CN[C@H]1CC2(CCC2)Oc2c(-c3ccncc3F)cc(CC(C)(C)C)cc21      HLM             118

# query: HLM of entry CO[C@H](C)C(=O)N[C@@H](Cc1ccc2c(c1)OCO2)[C@H](O)CN[C@H]1CC2(CCC2)Oc2ncc([C@H]3CC3(C)C)cc21 42
